MEASUREMENT_PROTOCOL: Particle size distribution by laser diffraction (Sympatec Helos, 1 bar dispersive pressure)
Assay type: physicochemical
MEASUREMENT_PARAMETERS: isolated crystalline product of the example; hydrochloride
MEASURED_PROPERTY: 90 volume-% of the particles (D90) (μm)
One number for each entry, in μm.

The following compounds have reported results that may help.
> print(dat)
                                   compound                   measured.property  value.measured
1  C#Cc1cccc(Nc2ncnc3cc(OCCOC)c(OCCOC)cc23)c1.Cl [Reference Example 5]  90 volume-% of the particles (D90)            4.61
2  C#Cc1cccc(Nc2ncnc3cc(OCCOC)c(OCCOC)cc23)c1.Cl [Reference Example 2]  90 volume-% of the particles (D90)            7.74
3  C#Cc1cccc(Nc2ncnc3cc(OCCOC)c(OCCOC)cc23)c1.Cl [Example 6]  90 volume-% of the particles (D90)           18.96

Value lookup for 90 volume-% of the particles (D90); key = C#Cc1cccc(Nc2ncnc3cc(OCCOC)c(OCCOC)cc23)c1.Cl [Reference Example 1] 4.53

Each recorded value in this set is attributed to patent US8669265B2.
